system name: Myc proto-oncogene protein (Homo sapiens)
run description: Binding affinity to recombinant full-length N-terminal hexahistidine-tagged c-Myc (353 to 437 residues) bHLH-ZIP domain (unknown origin) expressed in Escherichia coli BL21 DE3 (pLysS) by fluorescence polarization assay
Labelling: Kd reported below 5 nM becomes y; at or above becomes n.

Determine if O=C(NCCCCCCN1C(=O)S/C(=C\c2ccc(F)cc2)C1=O)c1ccc(Nc2ccc([N+](=O)[O-])c3nonc23)cc1 shows Kd strictly lower than 5 nM.
y

Determine if CCc1ccc(/C=C2\SC(=O)N(CCCCNC(=O)c3ccccc3Nc3ccc([N+](=O)[O-])c4nonc34)C2=O)cc1 shows Kd strictly lower than 5 nM.
y

Determine if O=C(NCCCCCN1C(=O)S/C(=C\c2ccc(F)cc2)C1=O)c1ccccc1Nc1ccc([N+](=O)[O-])c2nonc12 shows Kd strictly lower than 5 nM.
n

----------
system name: Myc proto-oncogene protein (Homo sapiens, UniProt P01106)
Sequence (P01106 whole entry, the tested form may be a part): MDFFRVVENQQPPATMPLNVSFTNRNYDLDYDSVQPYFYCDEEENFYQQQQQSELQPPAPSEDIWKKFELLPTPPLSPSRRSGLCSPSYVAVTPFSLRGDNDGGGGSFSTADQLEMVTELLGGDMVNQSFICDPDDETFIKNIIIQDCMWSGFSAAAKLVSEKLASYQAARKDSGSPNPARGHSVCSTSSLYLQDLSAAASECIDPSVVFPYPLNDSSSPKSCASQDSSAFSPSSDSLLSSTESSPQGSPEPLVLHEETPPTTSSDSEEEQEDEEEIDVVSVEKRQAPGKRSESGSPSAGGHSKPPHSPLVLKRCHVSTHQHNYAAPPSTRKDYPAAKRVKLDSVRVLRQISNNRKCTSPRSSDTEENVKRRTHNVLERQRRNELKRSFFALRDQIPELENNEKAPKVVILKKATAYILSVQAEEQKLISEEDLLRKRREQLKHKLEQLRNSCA
run description: Binding affinity to recombinant full-length N-terminal hexahistidine-tagged c-Myc (353 to 437 residues) bHLH-ZIP domain (unknown origin) expressed in Escherichia coli BL21 DE3 (pLysS) by fluorescence polarization assay
Labelling: Kd reported below 100 nM becomes yes (1); at or above becomes no (0).

See these solved cases before continuing.
CCc1ccc(/C=C2\SC(=O)N(CCCCCCNC(C)=O)C2=O)cc1
no (0)
CCc1ccc(/C=C2\SC(=O)N(CCCCCNC(=O)c3cccc(Nc4ccc([N+](=O)[O-])c5nonc45)c3)C2=O)cc1
no (0)

Next compound, please.
Determine if O=C(CCCCCNC(=O)c1ccc(Nc2ccc([N+](=O)[O-])c3nonc23)cc1)NCCCCCNC(=O)c1ccc(/C=C2\SC(=S)NC2=O)cc1 shows Kd strictly lower than 100 nM.
yes (1)

----------
run description: Cytotoxicity against c-Myc null rat TGR1 reconstituted with HMGA1b or MT-MC1 assessed as growth inhibition after 4 to 5 days by MTT assay
Assay type: cell-based
readout name: growth inhibition (GI)

O=C1NC(=S)S/C1=C/c1ccc(C(=O)NCCCCCNC(=O)c2ccc(Nc3ccc([N+](=O)[O-])c4nonc34)cc2)cc1
Non-Toxic
CCc1ccc(/C=C2\SC(=S)NC2=O)cc1
Non-Toxic
CCc1ccc(/C=C2\SC(=O)N(CCCCCNC(=O)CNC(=O)c3ccc(Nc4ccc([N+](=O)[O-])c5nonc45)cc3)C2=O)cc1
Non-Toxic
O=C1NC(=S)S/C1=C\c1ccc(C(=O)NCCCCCNC(=O)c2cccc(Nc3ccc([N+](=O)[O-])c4nonc34)c2)cc1
Non-Toxic

----------
system name: Myc proto-oncogene protein (Homo sapiens)
run description: Binding affinity to recombinant full-length N-terminal hexahistidine-tagged c-Myc (353 to 437 residues) bHLH-ZIP domain (unknown origin) expressed in Escherichia coli BL21 DE3 (pLysS) by fluorescence polarization assay
Catalogue of log10 of Kd values
Units before log transform: nM; reported quantity: Kd; transform: log10.

O=C1NC(=S)S/C1=C\c1ccc(C(=O)NCCCCCNC(=O)c2ccccc2Nc2ccc([N+](=O)[O-])c3nonc23)cc1
1.38
O=C(NCCCCCCN1C(=O)S/C(=C\c2ccc(F)cc2)C1=O)c1ccccc1Nc1ccc([N+](=O)[O-])c2nonc12
0.66
O=C1NC(=S)S/C1=C\c1ccc(C(=O)O)cc1
4.41
CCc1ccc(/C=C2\SC(=O)N(CCCCCNC(=O)CCCCCNC(=O)c3ccc(Nc4ccc([N+](=O)[O-])c5nonc45)cc3)C2=O)cc1
0.70

# evaluate next
Briefly, log10 of Kd measured for CCc1ccc(/C=C2\SC(=O)N(CCCCCNC(=O)c3ccc(Nc4ccc([N+](=O)[O-])c5nonc45)cc3)C2=O)cc1 : -0.22
